Hey, just so you know, these numbers are from ChEMBL document CHEMBL5365500.

- System: Bacillus subtilis
- assay-info: Antimicrobial activity against antibiotic-resistant Bacillus subtilis ATCC 6623 assessed as inhibition of visible growth measured after 20 to 24 hrs incubation by CLSI method
- Format: functional
- measurement-conditions: time 20-24 hrs
Please go through the items and note down their MIC.

For every item below, please supply its MIC.
1. O=C(O)c1ccc(-n2cc(CNc3cccc(C(F)(F)F)c3)c(-c3ccc(F)cc3)n2)cc1
2. O=C(O)c1ccc(-n2cc(CNc3cccc(Br)c3)c(-c3cccc(F)c3)n2)cc1
3. O=C(O)c1ccc(-n2cc(CNc3ccc(Oc4ccccc4)cc3)c(-c3cccc(F)c3)n2)cc1

A:
1: 2 µg/mL; 2: 2 µg/mL; 3: 2 µg/mL

For every item below, please supply its MIC.
1. O=C(O)c1ccc(-n2cc(CNc3ccc(Cl)c(Cl)c3)c(-c3cccc(F)c3)n2)cc1
2. O=C(O)c1ccc(-n2cc(CNc3cc(Br)cc(C(F)(F)F)c3)c(-c3ccc(F)c(F)c3)n2)cc1
3. O=C(O)c1ccc(-n2cc(CNc3cc(Cl)c(F)c(Cl)c3)c(-c3ccc(F)c(F)c3)n2)cc1
4. Cc1ccc(NCc2cn(-c3ccc(C(=O)O)cc3)nc2-c2ccc(F)cc2)cc1Cl
5. CC(C)(C)c1ccc(NCc2cn(-c3ccc(C(=O)O)cc3)nc2-c2ccc(F)cc2)cc1
6. O=C(O)c1ccc(-n2cc(CNc3cc(C(F)(F)F)cc(C(F)(F)F)c3)c(-c3cccc(F)c3)n2)cc1
7. O=C(O)c1ccc(-n2cc(CNc3cccc(OC(F)(F)F)c3)c(-c3ccc(F)cc3)n2)cc1

A:
1 µg/mL
0.5 µg/mL
0.5 µg/mL
8 µg/mL
2 µg/mL
1 µg/mL
2 µg/mL

For every item below, please supply its MIC.
1. O=C(O)c1ccc(-n2cc(CNc3ccc(Br)c(Cl)c3)c(-c3ccc(F)c(F)c3)n2)cc1
2. O=C(O)c1ccc(-n2cc(CNc3cc(Br)cc(C(F)(F)F)c3)c(-c3ccc(F)cc3)n2)cc1
3. O=C(O)c1ccc(-n2cc(CNc3cccc(F)c3)c(-c3ccc(F)cc3)n2)cc1
4. O=C(O)c1ccc(-n2cc(CNc3ccc(Br)cc3)c(-c3ccc(F)c(F)c3)n2)cc1
5. O=C(O)c1ccc(-n2cc(CNc3ccc(Br)c(Cl)c3)c(-c3cccc(F)c3)n2)cc1
6. Cc1cc(NCc2cn(-c3ccc(C(=O)O)cc3)nc2-c2ccc(F)cc2)ccc1F
7. O=C(O)c1ccc(-n2cc(CNc3ccc(F)c(C(F)(F)F)c3)c(-c3ccc(F)cc3)n2)cc1
8. O=C(O)c1ccc(-n2cc(CNc3cc(Cl)cc(C(F)(F)F)c3)c(-c3ccc(F)c(F)c3)n2)cc1

A:
["2 µg/mL", "1 µg/mL", "8 µg/mL", "> 32 µg/mL", "1 µg/mL", "4 µg/mL", "2 µg/mL", "0.5 µg/mL"]

For every item below, please supply its MIC.
1. O=C(O)c1ccc(-n2cc(CNc3ccc(F)c(Cl)c3F)c(-c3ccc(F)c(F)c3)n2)cc1
2. O=C(O)c1ccc(-n2cc(CNc3cc(Cl)c(F)c(Cl)c3)c(-c3cccc(F)c3)n2)cc1
3. O=C(O)c1ccc(-n2cc(CNc3cc(F)c(F)c(F)c3)c(-c3ccc(F)c(F)c3)n2)cc1
4. CC(C)c1ccc(NCc2cn(-c3ccc(C(=O)O)cc3)nc2-c2ccc(F)cc2)cc1
5. O=C(O)c1ccc(-n2cc(CNc3ccc(F)c(Cl)c3)c(-c3ccc(F)c(F)c3)n2)cc1
6. O=C(O)c1ccc(-n2cc(CNc3cc(C(F)(F)F)cc(C(F)(F)F)c3)c(-c3ccc(F)c(F)c3)n2)cc1

A:
1: 1 µg/mL; 2: 1 µg/mL; 3: 4 µg/mL; 4: 2 µg/mL; 5: 2 µg/mL; 6: 0.5 µg/mL

For every item below, please supply its MIC.
1. O=C(O)c1ccc(-n2cc(CNc3ccc(Br)cc3)c(-c3cccc(F)c3)n2)cc1
2. O=C(O)c1ccc(-n2cc(CNc3ccc(Cl)c(C(F)(F)F)c3)c(-c3cccc(F)c3)n2)cc1
3. O=C(O)c1ccc(-n2cc(CNc3cc(C(F)(F)F)cc(C(F)(F)F)c3)c(-c3ccc(F)cc3)n2)cc1
4. O=C(O)c1ccc(-n2cc(CNc3ccc(C(F)(F)F)cc3)c(-c3ccc(F)c(F)c3)n2)cc1
5. O=C(O)c1ccc(-n2cc(CNc3cc(Cl)cc(Cl)c3)c(-c3cccc(F)c3)n2)cc1

A:
4 µg/mL
0.5 µg/mL
1 µg/mL
1 µg/mL
1 µg/mL

For every item below, please supply its MIC.
1. O=C(O)c1ccc(-n2cc(CNc3ccc(Br)c(C(F)(F)F)c3)c(-c3cccc(F)c3)n2)cc1
2. O=C(O)c1ccc(-n2cc(CNc3cc(Cl)cc(C(F)(F)F)c3)c(-c3ccc(F)cc3)n2)cc1
3. O=C(O)c1ccc(-n2cc(CNc3ccccc3)c(-c3ccc(F)c(F)c3)n2)cc1
4. O=C(O)c1ccc(-n2cc(CNc3cc(F)cc(C(F)(F)F)c3)c(-c3ccc(F)cc3)n2)cc1
5. O=C(O)c1ccc(-n2cc(CNc3cc(F)c(F)c(F)c3)c(-c3cccc(F)c3)n2)cc1

A:
1. 0.5 µg/mL
2. 4 µg/mL
3. 8 µg/mL
4. 4 µg/mL
5. 4 µg/mL

For every item below, please supply its MIC.
1. O=C(O)c1ccc(-n2cc(CNc3cc(F)c(F)c(F)c3)c(-c3ccc(F)cc3)n2)cc1
2. NS(=O)(=O)c1ccc(NCc2cn(-c3ccc(C(=O)O)cc3)nc2-c2ccc(F)cc2)cc1

A:
["4 µg/mL", "> 32 µg/mL"]
